# TEST_DESCRIPTION: in vivo
# EXPERIMENTAL_CONTEXT: NMRI, mouse, GI tract with content (whole intestine), 40 pmol, total radioactivity
ASSAY_READOUT: tissue uptake dose at 0.5 h (%ID)
Note: unit %ID is implicit; provide only the numeric part.

Prompt: # input compound: CC1=NNC(c2ccc(CNC(=O)c3ccc(F)nc3)cc2)=C2CCC[C@H](OC(=O)NCCOCCOCCC(=O)N[C@H](Cc3ccccc3)C(=O)N[C@@H](CCC(N)=O)C(=O)N[C@@H](Cc3c[nH]c4ccccc34)C(=O)N[C@@H](C)C(=O)N[C@H](C(=O)NCC(=O)N[C@@H](Cc3c[nH]cn3)C(=O)N[C@@H](CC(C)C)[C@@H](O)CC(=O)N[C@@H](CC(C)C)C(N)=O)C(C)C)CCC12 (stereo partly shown) ; wanted: its tissue uptake dose at 0.5 h
Response: 38

All figures here come from paper PMC11947346.
